Protein target, amino acids: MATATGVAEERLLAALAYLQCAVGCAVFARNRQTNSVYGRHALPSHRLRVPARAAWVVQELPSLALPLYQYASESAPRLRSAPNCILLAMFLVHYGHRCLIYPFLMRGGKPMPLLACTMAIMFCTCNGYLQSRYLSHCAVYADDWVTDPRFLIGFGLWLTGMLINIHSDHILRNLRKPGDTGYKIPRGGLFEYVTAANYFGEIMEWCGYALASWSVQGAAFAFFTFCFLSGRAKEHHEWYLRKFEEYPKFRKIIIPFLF
Measured quantity: pIC50
Worth noting: pIC50 values are minus log10 of concentrations stated in mol/L.

Hello, please tell me recorded pIC50 for this one: CC(C)(C)NC(=O)[C@H]1CC[C@H]2[C@@H]3CC[C@H]4NC(=O)C=C[C@]4(C)[C@H]3CC[C@]12C [Finasterid]
6.43
